Test: Cell Viability - MRC5 (AID 434);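 further: cells exposed to compound for 40 hours at 37 °C; potency reflects cytotoxicity seen as loss of intracellular ATP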
Conditions: MRC5 lung fibroblast viability, qHTS
From the text: NIH Chemical Genomics Center [NCGC] NIH Molecular Libraries Screening Centers Network [MLSCN] National Institutes of Environmental Health Sciences [NIEHS] National Toxicology Program [NTP] We have developed a 1536-well cell-based assay for quantitative high throughput screening (qHTS) against a number of cell lines to determine in vitro cytotoxicity of small molecules. […] 8. Detection; Luminescence; Viewlux plate reader […]
Records with an inconclusive call do not appear. Active and inactive are the calls of the source. The call rests on the fitted dose curve.
Classes used: active, inactive

{"Structure As Smiles": "CN(C)c1ccc(C(=C2C=CC(=[N+](C)C)C=C2)c2ccc(N(C)C)cc2)cc1", "Assigned Category": "active"}
{"Structure As Smiles": "CC1=NN(c2ccccc2)C(=O)C1", "Assigned Category": "inactive"}
{"Structure As Smiles": "C[C@]12C=CC(=O)C=C1CC[C@@H]1[C@@H]2C(=O)C[C@@]2(C)[C@H]1CC[C@]2(O)C(=O)CO", "Assigned Category": "inactive"}
{"Structure As Smiles": "CCc1cc(C(N)=S)ccn1", "Assigned Category": "inactive"}
{"Structure As Smiles": "Cc1cc(NS(=O)(=O)c2ccc(N)cc2)no1", "Assigned Category": "inactive"}
{"Structure As Smiles": "NNC(=O)c1ccncc1", "Assigned Category": "inactive"}

----------
tested on: CP250; experiment: qHTS profiling for inhibitors of Plasmodium falciparum proliferation (AID 504749); further: nearly all actives have a fitted effect of over 60% in size; conditions: P. falciparum in erythrocytes, SYBR Green DNA, 72 h; series mostly up to 28.7 µM
Results filed as inconclusive are left out. Activity calls are given as the source filed them. The call rests on the fitted dose curve; in most records, active means well fitted inhibition curve with a large enough effect; inconclusive means small, poorly fitted or top-dose-only effect; inactive means flat fitted curve, though single readings scatter.
Possible outcomes: True for active, False for inactive

{"Molecule": "CC(C)OC(=O)C(C(=O)OC(C)C)=C1SC=CS1", "Assigned Category": "False"}
{"Molecule": "CCN(C)C(=O)Oc1cccc([C@H](C)N(C)C)c1", "Assigned Category": "False"}
{"Molecule": "Cn1nnc2c(C(N)=O)ncn2c1=O", "Assigned Category": "False"}
{"Molecule": "O=P(O)(O)C(O)(Cc1cccnc1)P(=O)(O)O", "Assigned Category": "False"}
{"Molecule": "COC(=O)Nc1nc2ccc(Sc3ccccc3)cc2[nH]1", "Assigned Category": "False"}
{"Molecule": "CCCc1cc(C(N)=S)ccn1", "Assigned Category": "False"}
{"Molecule": "C[C@]12C=CC(=O)C=C1CC[C@@H]1[C@@H]2C(=O)C[C@@]2(C)[C@H]1CC[C@]2(O)C(=O)CO", "Assigned Category": "False"}
{"Molecule": "N[C@@H](C(=O)N[C@@H]1C(=O)N2C(C(=O)O)=C(Cl)CS[C@H]12)c1ccccc1", "Assigned Category": "False"}
{"Molecule": "CN(C)c1ccc(C(=C2C=CC(=[N+](C)C)C=C2)c2ccc(N(C)C)cc2)cc1", "Assigned Category": "True"}
{"Molecule": "COC(=O)Nc1nc2ccc(C(=O)c3ccccc3)cc2[nH]1", "Assigned Category": "False"}
{"Molecule": "CCOC(=O)[C@H](CCc1ccccc1)N[C@H]1CS[C@H](c2cccs2)CN(CC(=O)O)C1=O", "Assigned Category": "False"}
{"Molecule": "CCCCOc1ccc(CC(=O)NO)cc1", "Assigned Category": "True"}
{"Molecule": "CN1CCN(c2c(F)cc3c(=O)c(C(=O)O)cn(CCF)c3c2F)CC1", "Assigned Category": "False"}
{"Molecule": "COc1cc(NCc2ccc3nc(N)nc(N)c3c2C)cc(OC)c1OC", "Assigned Category": "True"}
{"Molecule": "Cc1cccc(Nc2ccncc2S(=O)(=O)NC(=O)NC(C)C)c1", "Assigned Category": "False"}
{"Molecule": "CC(C)NCC(O)c1ccc(NS(C)(=O)=O)cc1 (stereo not drawn)", "Assigned Category": "False"}
{"Molecule": "NCCCC(O)(P(=O)(O)O)P(=O)(O)O", "Assigned Category": "False"}
{"Molecule": "CCOCC(O)COc1ccc(NC(=O)CC[S+](C)C)cc1 (stereo not drawn)", "Assigned Category": "False"}
